- SUBJECT OF TEST: mfPRLR.mmh (monomeric macaca fascicularis PRLR)
- Sequence (as listed by the source): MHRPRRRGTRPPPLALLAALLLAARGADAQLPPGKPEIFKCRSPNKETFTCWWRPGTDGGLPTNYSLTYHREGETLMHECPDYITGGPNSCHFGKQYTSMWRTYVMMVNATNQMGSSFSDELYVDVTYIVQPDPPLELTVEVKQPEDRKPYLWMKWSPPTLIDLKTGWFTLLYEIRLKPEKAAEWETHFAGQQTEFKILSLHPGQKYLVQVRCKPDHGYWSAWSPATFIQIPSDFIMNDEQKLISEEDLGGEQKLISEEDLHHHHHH
- TEST SUMMARY: Surface plasmon resonance (Biacore T200), mAb-capture format
- Assay type: binding
- CONDITION SET: 25° C., antibody-capture format, analyte mfPRLR.mmh
Checkbox rule: Kd lower than 2 nM = label 1; Kd not lower than 2 nM = label 0.

Kd strictly < 2 nM for this molecule? H1H6797P: anti-PRLR antibody, human IgG1 Fc; HCVR/LCVR SEQ ID NOs 178/186 (antibody, V domains shown, human IgG1 Fc) VH: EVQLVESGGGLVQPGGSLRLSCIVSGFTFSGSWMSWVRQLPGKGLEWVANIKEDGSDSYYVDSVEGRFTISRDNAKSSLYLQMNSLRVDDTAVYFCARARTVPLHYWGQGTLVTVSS VL: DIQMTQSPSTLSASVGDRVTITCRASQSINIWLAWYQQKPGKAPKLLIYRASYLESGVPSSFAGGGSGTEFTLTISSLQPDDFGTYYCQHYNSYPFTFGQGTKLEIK
label 0

Identify whether the molecule H1H6793P: anti-PRLR antibody, human IgG1 Fc; HCVR/LCVR SEQ ID NOs 146/154 (antibody, V domains shown, human IgG1 Fc) VH: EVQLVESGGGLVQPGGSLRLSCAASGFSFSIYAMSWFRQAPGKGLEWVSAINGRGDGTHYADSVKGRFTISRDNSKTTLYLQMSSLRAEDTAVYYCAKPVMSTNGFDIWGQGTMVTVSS VL: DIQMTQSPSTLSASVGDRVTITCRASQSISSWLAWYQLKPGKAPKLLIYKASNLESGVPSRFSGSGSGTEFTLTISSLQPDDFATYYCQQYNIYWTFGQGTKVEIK records Kd below 2 nM.
label 0

State whether 2 nM exceeds Kd recorded for H1H6976N: human IgG1 Fc form of H2M6976N; anti-PRLR; HCVR/LCVR SEQ ID NOs 386/394 (antibody, V domains shown, human IgG1 Fc) VH: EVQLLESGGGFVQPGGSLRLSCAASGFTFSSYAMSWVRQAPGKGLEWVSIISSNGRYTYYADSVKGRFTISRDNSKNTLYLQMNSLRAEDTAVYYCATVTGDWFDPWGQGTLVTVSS VL: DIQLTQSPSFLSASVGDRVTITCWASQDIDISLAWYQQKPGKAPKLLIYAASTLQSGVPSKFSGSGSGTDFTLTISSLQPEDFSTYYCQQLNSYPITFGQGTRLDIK .
label 1

Dear colleague, could you confirm whether Kd of H1H6795P: anti-PRLR antibody, human IgG1 Fc; HCVR/LCVR SEQ ID NOs 162/170 (antibody, V domains shown, human IgG1 Fc) VH: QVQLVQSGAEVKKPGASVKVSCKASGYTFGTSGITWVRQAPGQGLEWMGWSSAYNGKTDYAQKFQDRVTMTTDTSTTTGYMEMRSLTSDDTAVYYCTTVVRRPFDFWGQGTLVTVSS VL: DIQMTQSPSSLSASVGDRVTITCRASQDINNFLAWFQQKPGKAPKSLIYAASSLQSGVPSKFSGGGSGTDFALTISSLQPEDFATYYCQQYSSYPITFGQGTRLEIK falls below 2 nM? Thanks.
label 0
